test system: Saccharomyces cerevisiae; test: protein stability index of tFT-peptide fusion (C-terminal peptide) (PSI (0-1 scale)); higher = more stable (slower turnover); conditions: genetic background: das1 deletion; temperature: 30 C
Measure name: protein stability index
Kindly provide the number alone.

Input line: Recorded protein stability index for HLTKLCIFPGLP [YLR282C C-terminal 12 aa] , please?
Output line: 0.689

Input line: And what about the sequence LQVSQEFTTKTQ [NUP82 C-terminal 12 aa] ?
Output line: 0.676

Input line: Let us now turn to DVFEEIGYSMKD [SAE3 C-terminal 12 aa]
Output line: 0.715

Input line: Ok, now IVNDVWLPFQKW [DSD1 C-terminal 12 aa]
Output line: 0.729

Input line: Try this sequence too: KHKNILSFNDNT [YER188C-A C-terminal 12 aa]
Output line: 0.731

Input line: Let us now turn to TTDEEVKEKKKR [GLE2 C-terminal 12 aa]
Output line: 0.689

Input line: Then NQYANNLNLIDM [YAP1801 C-terminal 12 aa] ?
Output line: 0.694

Input line: Now try SKKVICNTFGYN [DDI2 C-terminal 12 aa] .
Output line: 0.689

Input line: Here is the next sequence: KARIVVAKSGEL [CPR1 C-terminal 12 aa]
Output line: 0.686

Input line: Subsequent entry: NSNKKKGFKSRR [DRS1 C-terminal 12 aa]
Output line: 0.682

Input line: Same lookup for KIQWDIDPQLDG [SSY5 C-terminal 12 aa] , please.
Output line: 0.743

Input line: One more sequence: MKSKKIDIKGQK [THP3 C-terminal 12 aa]
Output line: 0.705

Input line: Query ELLCKGICKAAE [HEL1 C-terminal 12 aa] next
Output line: 0.686

Input line: Would you kindly repeat that for GEASTGNRLSFK [BNI1 C-terminal 12 aa] ?
Output line: 0.719

Input line: Subsequent entry: FYHVFDEPRYYL [CWH43 C-terminal 12 aa]
Output line: 0.752

Input line: Field entry: NYGQYSSFWSLL [YOR055W C-terminal 12 aa]
Output line: 0.765

Input line: Next up: KTQDYGKKYNSG [SIZ1 C-terminal 12 aa]
Output line: 0.69

Input line: Now the sequence LKRVVTKAMSSR [SSB1 C-terminal 12 aa]
Output line: 0.714

Input line: Also need FCHGAEDAWNIL [EMG1 C-terminal 12 aa] , thanks.
Output line: 0.727

Input line: Repeat for the following sequence: DACIKRWNVVLE [AIP1 C-terminal 12 aa]
Output line: 0.684

Input line: Next entry: ARIWKYKKIAPN [TUP1 C-terminal 12 aa]
Output line: 0.726

Input line: Request: IFKSLIAKKVQS [BPL1 C-terminal 12 aa]
Output line: 0.69

Input line: Let us now turn to HSSYDRPMIIKN [UBP15 C-terminal 12 aa]
Output line: 0.685

Input line: Again, but for LLEDLRSRIDLD [MLO50 C-terminal 12 aa]
Output line: 0.685

Input line: Next: ANRQCYVNGTKT [YDR250C C-terminal 12 aa]
Output line: 0.663

Input line: And AVVLQSIQFTSE [IML3 C-terminal 12 aa] ?
Output line: 0.621

Input line: Quick one: WKLAKLQIDEAL [SNX41 C-terminal 12 aa]
Output line: 0.693

Input line: Another sequence: PKINPLHARKPT [RAD52 C-terminal 12 aa]
Output line: 0.709

Input line: Try the sequence EECYLHSESFGY [FRE7 C-terminal 12 aa]
Output line: 0.68

Input line: Same for QSATKNQQNQGK [SSQ1 C-terminal 12 aa]
Output line: 0.679

Input line: Okay, and GIDVHYVFRTYH [CIN10 C-terminal 12 aa] ?
Output line: 0.704

Input line: Then what about the sequence CIPLINYHLRKS [CBS1 C-terminal 12 aa] ?
Output line: 0.709

Input line: Now consider NSGSAATDSPFN [STS1 C-terminal 12 aa] and answer again.
Output line: 0.727

Input line: One more sequence: VDQLFEKASVLY [RPN6 C-terminal 12 aa]
Output line: 0.68

Input line: Likewise for TISPYIRVCVST [YPR099C C-terminal 12 aa] ?
Output line: 0.389

Input line: Same again, this time with ADARDKFVDLYN [ADD66 C-terminal 12 aa]
Output line: 0.696

Input line: Queued: TRRVAARKGKLS [UTR5 C-terminal 12 aa]
Output line: 0.686

Input line: Check HLYDHILEKMVK [CNM67 C-terminal 12 aa] too.
Output line: 0.694

Input line: Then this sequence: EINSDFIENFEE [MSH4 C-terminal 12 aa]
Output line: 0.701

Input line: Also SMTTTNFSDFSL [UPC2 C-terminal 12 aa] , if possible.
Output line: 0.693

Input line: Another sequence: PCRYLELRKFGR [TPN1 C-terminal 12 aa]
Output line: 0.701

Input line: Also, IMALIAESGDDF [ERV14 C-terminal 12 aa] please.
Output line: 0.673

Input line: Same again, this time with DSFFFDVLAQLP [YLR434C C-terminal 12 aa]
Output line: 0.736

Input line: And ADWKAQRGEDGK [PNG1 C-terminal 12 aa] ?
Output line: 0.674
